System: SNB-75 CNS
Test: NCI tumour cell line growth inhibition, 48 h
readout: TGI

{"columns": ["molecule", "experimental.system", "TGI"],
 "data": [
  ["CCC1=NC(CO)[C@H](c2ccccc2)O1 (stereo not given in full)", "SNB-75 CNS", "> 100 µM"],
  ["Cc1cc2ncn(C3CCCCO3)c2cc1C (stereo not given)", "SNB-75 CNS", "> 100 µM"],
  ["COC(=O)C1=C(C(=O)OC)SC(=CC#CC=C2SC(C(=O)OC)=C(C(=O)OC)S2)S1", "SNB-75 CNS", "19.3 µM"],
  ["Cc1cc2c(cc1C)N(C(=O)CCl)CCN2C(=O)CCl", "SNB-75 CNS", "3.1 µM"],
  ["Cc1cc(C)nc(NS(=O)(=O)c2ccc(Nc3c4ccccc4nc4c(C(=O)N5CCN(CCOS(C)(=O)=O)CC5)cccc34)cc2)n1", "SNB-75 CNS", "> 100 µM"]
]}

INPUT: Give SNB-75 CNS TGI for `Cc1c(CN2CCN(C)CC2)c(CN2CCN(C)CC2)c(C)n1-c1ccc(Cl)cc1`
OUTPUT: 88.4 µM

INPUT: Then `CN(C)CCNC(=O)c1cc(Cl)cc2ccc(-c3ccccc3)nc12` ?
OUTPUT: 14 µM

INPUT: Moving on to `Cc1cc(C)c(S(=O)(=O)N(CCCN)OCCCON(CCCN)S(=O)(=O)c2c(C)cc(C)cc2C)c(C)c1`
OUTPUT: 3.29 µM

INPUT: Then what about the molecule `Cc1cc(C)c(C(=O)c2no[n+]([O-])c2C(=O)c2c(C)cc(C)c(Br)c2C)c(C)c1Br` ?
OUTPUT: 25.8 µM

INPUT: Consider next the molecule `O=c1nc2c(c(-c3ccc(Br)cc3)[nH]1)COC/C2=C\c1ccc(Br)cc1` in the same way.
OUTPUT: > 50 µM
